Measurement description: Hepatic microsomal stability
Assay type: in vitro ADME, human
Condition details: pooled liver microsomes; human hepatic microsomes; arithmetic mean of two experiments; read-out: Mean intrinsic clearance
Would you mind telling me the reported microsomal CLint at 0.1 μM of each entry?
One number for each entry, in µL/min/mg.

So for C#Cc1cc(Nc2nccc(Oc3ccc(NC(=O)Nc4cc(C(C)(C)C)nn4-c4ccc(OC)cc4)c4ccccc34)n2)cc(C(=O)NCCN2CCOCC2)c1 [Example 77] , the logged microsomal CLint at 0.1 μM turned out to be 308

As a next step, examine the compound that follows.
microsomal CLint at 0.1 μM for C#Cc1cc(Nc2nccc(Oc3ccc(NC(=O)Nc4cc(C(C)(C)C)nn4-c4ccc(N(C)C)cc4)c4ccccc34)n2)cc(C(=O)NCCN2CCOCC2)c1 [Example 80] is 216

###

Assignment: determine reported IC50 for the given compounds.
Target desc: cSrc (Homo sapiens, UniProt P12931)
Sequence (P12931 whole entry): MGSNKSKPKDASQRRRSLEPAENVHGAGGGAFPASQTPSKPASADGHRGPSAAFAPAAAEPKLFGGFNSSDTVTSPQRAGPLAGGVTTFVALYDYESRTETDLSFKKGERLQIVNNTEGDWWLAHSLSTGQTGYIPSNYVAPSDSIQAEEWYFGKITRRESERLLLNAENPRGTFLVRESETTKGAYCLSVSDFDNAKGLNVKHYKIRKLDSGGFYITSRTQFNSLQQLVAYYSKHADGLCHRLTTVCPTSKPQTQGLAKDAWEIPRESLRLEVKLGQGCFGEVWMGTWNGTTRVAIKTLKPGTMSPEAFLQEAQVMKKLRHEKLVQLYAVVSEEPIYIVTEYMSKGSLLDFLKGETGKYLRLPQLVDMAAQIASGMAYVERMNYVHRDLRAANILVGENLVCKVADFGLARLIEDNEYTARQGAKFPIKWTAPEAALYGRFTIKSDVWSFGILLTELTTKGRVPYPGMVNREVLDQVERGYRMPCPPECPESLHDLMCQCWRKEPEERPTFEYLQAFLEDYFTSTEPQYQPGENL
Measurement description: c-Src enzyme inhibition (FRET)
Assay type: biochemical
Condition details: Table 4a1
Numbers only, in nM.

Lab book: IC50 of `COc1ccc(-n2nc(C(C)(C)C)cc2NC(=O)Nc2ccc(Oc3ccnc(Nc4cc(Br)cc(C(N)=O)c4)n3)c3ccccc23)cc1` noted as 20

Summary for this compound, `COc1cc(C(=O)NCCO)ccc1Nc1nccc(Oc2ccc(NC(=O)Nc3cc(C(C)C)nn3-c3ccc(C)cc3)c3ccccc23)n1` : IC50 is 8

Per the records, this compound ( `COc1cc(C(=O)NCCN2CCOCC2)ccc1Nc1nccc(Oc2ccc(NC(=O)Nc3cc(C(C)(C)C)nn3-c3ccc(C)cc3)c3ccccc23)n1` ) has IC50 equal to 27

Given item `COc1cc(Nc2cc(Oc3ccc(NC(=O)Nc4cc(C(C)(C)C)nn4-c4ccc(C)cc4)c4ccccc34)ccn2)cc(C(=O)NCCN2CCOCC2)c1` , the value recorded as its IC50 is 5

Shifting focus to the compound that follows.
Reported IC50 of `Cc1ccc(-n2nc(C(C)(C)C)cc2NC(=O)Nc2ccc(Oc3ccnc(Nc4cccc(C(N)=O)c4)n3)c3ccccc23)cc1` : 5

###

Can you tell me pIC50 for the items I'm about to list?
Target desc: cSrc (Homo sapiens, UniProt P12931)
Measurement description: c-Src enzyme inhibition (FRET)
Assay type: biochemical
Condition details: Table 4a1
Procedure: The enzyme inhibitory activities of compounds disclosed herein are determined by FRET using synthetic peptides labelled with both donor and acceptor fluorophores (Z-LYTE, Invitrogen Ltd., Paisley, UK). The relevant enzyme (3000 ng/mL or 2000 ng/mL respectively, 2.5 μL) is incubated with the test compound (either 4 μg/mL, 0.4 μg/mL, 0.04 μg/mL, or 0.004 μg/mL, 2.5 μL each) for 2 hr at RT. […]
Answers are plain numbers, as −log10 of the molar value.

Recorded pIC50, per entry:
// returns pIC50 for `Cc1csc(-n2nc(C(C)(C)C)cc2NC(=O)Nc2ccc(Oc3ccnc(Nc4cccc(C(=O)NCCN5CCOCC5)c4)n3)c3ccccc23)c1` with cSrc (Homo sapiens, UniProt P12931); value = 9.00

For the molecule `COc1ccc(-n2nc(C(C)(C)C)cc2NC(=O)Nc2ccc(Oc3ccnc(Nc4cccc(C(=O)NCCN5CCOCC5)c4)n3)c3ccccc23)cc1` , the measured pIC50 on cSrc (Homo sapiens, UniProt P12931) was 8.30

# pIC50 measured on cSrc (Homo sapiens, UniProt P12931) for item `COc1cc(Nc2nccc(Oc3ccc(NC(=O)Nc4cc(C(C)(C)C)nn4-c4ccc(C)cc4)c4ccccc34)n2)cc(C(=O)NCCN(C)C)c1` = 8.70

Test item `COc1cc(Nc2nccc(Oc3ccc(NC(=O)Nc4cc(C(C)C)nn4-c4ccc(C)cc4)c4ccccc34)n2)cc(C(=O)N2CCN(C)CC2)c1` ; cSrc (Homo sapiens, UniProt P12931); reported pIC50 was 9.00

Query `COc1ccc(-n2nc(C(C)(C)C)cc2NC(=O)Nc2ccc(Oc3ccnc(Nc4cc(OC)cc(C(N)=O)c4)n3)c3ccccc23)cc1` on cSrc (Homo sapiens, UniProt P12931); pIC50 returned: 8.00

Batch lookup, pIC50 per entry.
1. COc1cc(C(=O)NCCO)ccc1Nc1nccc(Oc2ccc(NC(=O)Nc3cc(C(C)(C)C)nn3-c3ccc(C)cc3)c3ccccc23)n1
2. Cc1ccc(-n2nc(C(C)(C)C)cc2NC(=O)Nc2ccc(Oc3ccnc(Nc4cccc(C(=O)NCCN(C)C)c4)n3)c3ccccc23)cc1
3. Cc1ccc(-n2nc(C(C)(C)C)cc2NC(=O)Nc2ccc(Oc3ccnc(Nc4cccc(C(=O)N5CCOCC5)c4)n3)c3ccccc23)cc1
4. COc1cc(Nc2nccc(Oc3ccc(NC(=O)Nc4cc(C(C)(C)C)nn4-c4ccc(C)cc4)c4ccccc34)n2)cc(C(=O)NCCN2CCOCC2)c1

Result:
[7.31, 8.15, 8.40, 8.52]

Dear reader, for each entry below, please note its pIC50.
1. COc1ccc(-n2nc(C(C)C)cc2NC(=O)Nc2ccc(Oc3ccnc(Nc4cc(C(=O)NCCO)ccc4OC)n3)c3ccccc23)cc1
2. Cc1ccc(-n2nc(C(C)(C)C)cc2NC(=O)Nc2ccc(Oc3ccnc(Nc4cccc(C(=O)N(C)C)c4)n3)c3ccccc23)cc1
3. COc1cc(Nc2nccc(Oc3ccc(NC(=O)Nc4cc(C(C)C)nn4-c4ccc(C)c(C)c4)c4ccccc34)n2)cc(C(=O)NCCN2CCOCC2)c1
4. Cc1ccc(-n2nc(C(C)(C)C)cc2NC(=O)Nc2ccc(Oc3ccnc(Nc4cccc(C(=O)NCCN5CCN(C)CC5)c4)n3)c3ccccc23)cc1
5. Cc1ccc(-n2nc(C(C)C)cc2NC(=O)Nc2ccc(Oc3ccnc(Nc4cc(Cl)cc(C(=O)NCCN5CCOCC5)c4)n3)c3ccccc23)cc1
6. COc1cc(Nc2nccc(Oc3ccc(NC(=O)Nc4cc(C(F)(F)F)nn4-c4ccc(C)cc4)c4ccccc34)n2)cc(C(=O)NCCN2CCOCC2)c1
7. COc1ccc(Nc2nccc(Oc3ccc(NC(=O)Nc4cc(C(C)(C)C)nn4-c4ccc(C)cc4)c4ccccc34)n2)cc1C(=O)NCCN1CCOCC1

Result:
1. 8.70
2. 8.22
3. 8.30
4. 8.40
5. 7.89
6. 8.30
7. 8.70
